Test: in vivo
Conditions: rat, po
assay.metric: LD50 (mg/kg)
Use mg/kg as the unit, but write only the number.

Guide cases for LD50, answers given:
entry.smiles	unit.abbrev	reported
Cc1ccc(O)cc1	mg/kg	1800
Cc1ccccc1O	mg/kg	1350
COc1ccccc1O	mg/kg	725
Cc1cccc(O)c1	mg/kg	2020

Please find the next compound below.
The reported value for `Oc1ccccc1` in terms of LD50 is 530
